# Tested on: OVCAR-4 ovarian
# Assay text: NCI-60 one-dose screen, 48 h (100 = growth as untreated, 0 = no growth, -100 = all killed)
# Measurement setup: 10 µM unless noted
This is part of a sample that, as a whole, favours compounds with a hit. Of some 83,000 tested, about 20% had one in any assay.
Some compounds, each annotated with its measured growth.
Value kind: growth (%)

Compound | Value kind | Endpoint result
CC1(C)C(=O)/C(=C\c2ccc(C(F)(F)F)cc2)C[C@]2(C)[C@H]3CC[C@@H]4[C@H]5[C@H](C(=O)/C=C/c6ccc(C(F)(F)F)cc6)CC[C@]5(CO)CC[C@@]4(C)[C@]3(C)CC[C@@H]12 | growth | 96.6
C=C1CCC2C3(C)COC(c4c(OC)cccc4OC)OC3CCC2(C)C1C/C=C1/C(=O)OCC1O (stereo not drawn) | growth | 41.3
C=C(C)[C@@H]1C[C@@H]2Cc3cc(Cl)ccc3N1O2 | growth | 89.4
